Test: in vitro
Details: human, plasma

smiles.input	half-life
CC(=O)N[C@@H](CCC(N)=O)C(=O)N[C@@H](Cc1ccccc1)C(=O)N[C@@H](CCCNC(=N)N)C(=O)c1nc2ccccc2s1	> 4.82 h

----------
Molecular target: Cathepsin V (Homo sapiens, UniProt O60911)
Sequence (O60911 114-334, species assumed): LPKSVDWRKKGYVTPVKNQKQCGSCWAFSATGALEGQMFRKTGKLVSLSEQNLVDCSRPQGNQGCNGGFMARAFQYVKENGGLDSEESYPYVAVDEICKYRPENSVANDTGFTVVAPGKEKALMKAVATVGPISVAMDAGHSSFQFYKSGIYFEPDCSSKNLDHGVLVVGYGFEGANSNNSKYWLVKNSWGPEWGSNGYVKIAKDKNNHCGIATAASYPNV
pIC50: −log10 of the molar value.
assay.endpoint: pIC50

compound	measured.on	assay.endpoint	readout.value
CC(C)C[C@H](NC(=O)[C@H]1O[C@@H]1C(=O)O)C(=O)NCCCCN=C(N)N [Compound E64, E64]	Cathepsin V (Homo sapiens, UniProt O60911)	pIC50	8.41

----------
Biological target: UniProtKB P09668
Sequence (P09668 98-335): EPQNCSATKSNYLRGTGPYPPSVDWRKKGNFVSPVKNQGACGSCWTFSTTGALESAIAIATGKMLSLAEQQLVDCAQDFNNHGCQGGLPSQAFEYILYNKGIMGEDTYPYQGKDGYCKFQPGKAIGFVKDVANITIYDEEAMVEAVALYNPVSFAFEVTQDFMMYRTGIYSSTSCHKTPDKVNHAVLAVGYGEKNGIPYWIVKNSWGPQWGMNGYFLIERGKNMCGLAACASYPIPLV
assay.endpoint: IC50 (µM)

smiles.input	assay.endpoint	readout.value
CC(C)C[C@H](NC(=O)[C@H]1O[C@@H]1C(=O)O)C(=O)NCCCCN=C(N)N	IC50	0.0356

----------
Molecular target: Caspase 14 (Homo sapiens)
Sequence (P31944 6-242): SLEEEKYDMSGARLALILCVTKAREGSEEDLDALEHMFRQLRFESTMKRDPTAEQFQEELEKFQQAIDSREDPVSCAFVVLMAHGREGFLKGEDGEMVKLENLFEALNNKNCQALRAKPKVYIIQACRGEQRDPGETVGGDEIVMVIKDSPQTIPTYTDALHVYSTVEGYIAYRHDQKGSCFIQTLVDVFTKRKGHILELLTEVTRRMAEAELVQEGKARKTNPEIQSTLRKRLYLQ
pIC50: −log10 of the molar value. Residues, ends and D or L forms follow the SMILES beside them.
assay.endpoint: pIC50

molecule	assay.endpoint	readout.value
CC(=O)N[C@@H](Cc1c[nH]c2ccccc12)C(=O)N[C@@H](CCC(=O)O)C(=O)N[C@@H](Cc1cnc[nH]1)C(=O)N[C@H](C=O)CC(=O)O [WEHD-CHO] (Ac-WEHD-aldehyde)	pIC50	7.17

----------
Target: Chymase (Homo sapiens, UniProt P23946)
Sequence (P23946 22-247, species assumed): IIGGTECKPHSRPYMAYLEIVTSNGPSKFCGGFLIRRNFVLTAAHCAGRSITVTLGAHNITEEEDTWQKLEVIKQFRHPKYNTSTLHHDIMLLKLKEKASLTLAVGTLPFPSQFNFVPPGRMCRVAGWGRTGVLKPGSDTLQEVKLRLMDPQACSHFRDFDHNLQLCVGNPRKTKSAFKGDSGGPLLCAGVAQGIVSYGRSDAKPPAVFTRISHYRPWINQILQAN

smiles.input	result.units	IC50
CC(C)C[C@H](NC(=O)[C@@H](NC(=O)N[C@@H](Cc1ccccc1)C(=O)O)[C@@H]1CCN=C(N)N1)C(=O)N[C@H](C=O)Cc1ccccc1	nM	10.1

----------
Target: Factor Xa (Homo sapiens)
Sequence (P00742 235-488 limits assumed): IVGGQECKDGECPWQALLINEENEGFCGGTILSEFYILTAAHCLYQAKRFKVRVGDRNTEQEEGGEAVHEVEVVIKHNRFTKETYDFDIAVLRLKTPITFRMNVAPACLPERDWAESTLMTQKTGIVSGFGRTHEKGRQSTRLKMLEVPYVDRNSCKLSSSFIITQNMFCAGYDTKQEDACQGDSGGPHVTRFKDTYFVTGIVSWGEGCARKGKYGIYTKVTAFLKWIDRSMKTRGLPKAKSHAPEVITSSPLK
Sequence (P00742 41-179 partner limits assumed): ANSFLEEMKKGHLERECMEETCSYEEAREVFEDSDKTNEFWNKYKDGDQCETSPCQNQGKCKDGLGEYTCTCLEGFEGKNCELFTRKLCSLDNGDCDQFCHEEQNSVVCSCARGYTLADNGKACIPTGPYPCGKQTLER
Assay: Factor Xa enzyme inhibition (published assays)
Assay type: biochemical
So basically, if IC50 comes in under 100 nM it's 1 (yes), and if it's 100 nM or more it's 0 (no).

molecule	class.label
CC(=O)N[C@@H](CO)C(=O)N[C@@H](CCCCN)C(=O)N[C@@H](Cc1ccccc1)C(=O)N[C@@H](CCCNC(=N)N)C(=O)c1nccs1	0 (no)
CC(=O)N[C@@H](CCCCN)C(=O)N[C@@H](CCC(N)=O)C(=O)N[C@@H](Cc1ccccc1)C(=O)N[C@@H](CCCNC(=N)N)C(=O)c1nccs1	0 (no)
CC(=O)NC(CO)C(=O)NC(CCCCN)C(=O)NC(CC(C)C)C(=O)NC(CCCNC(=N)N)C(=O)c1nc2ccccc2s1 (stereo not drawn)	0 (no)
CN(C)C(=O)COC(=O)Cc1ccc(OC(=O)c2ccc(NC(=N)N)cc2)cc1 [Camostat, reference compound]	0 (no)
CC(=O)N[C@@H](CCC(N)=O)C(=O)N[C@@H](Cc1ccccc1)C(=O)N[C@@H](CCCNC(=N)N)C(=O)c1nc2ccccc2s1	1 (yes)
N=C(N)c1ccc2cc(OC(=O)c3ccc(N=C(N)N)cc3)ccc2c1 [Nafamostat, reference compound]	0 (no)
CC(=O)N[C@@H](Cc1c[nH]c2ccccc12)C(=O)N[C@@H](Cc1ccccc1)C(=O)N[C@@H](CCCNC(=N)N)C(=O)c1nc2ccccc2s1	1 (yes)
CC(=O)N[C@@H](Cc1ccccc1)C(=O)N[C@@H](CC(C)C)C(=O)N[C@@H](Cc1ccccc1)C(=O)N[C@@H](CCCNC(=N)N)C(=O)c1nc2ccccc2s1	1 (yes)

----------
Target: Hepsin (Homo sapiens)
Sequence (P05981 whole entry): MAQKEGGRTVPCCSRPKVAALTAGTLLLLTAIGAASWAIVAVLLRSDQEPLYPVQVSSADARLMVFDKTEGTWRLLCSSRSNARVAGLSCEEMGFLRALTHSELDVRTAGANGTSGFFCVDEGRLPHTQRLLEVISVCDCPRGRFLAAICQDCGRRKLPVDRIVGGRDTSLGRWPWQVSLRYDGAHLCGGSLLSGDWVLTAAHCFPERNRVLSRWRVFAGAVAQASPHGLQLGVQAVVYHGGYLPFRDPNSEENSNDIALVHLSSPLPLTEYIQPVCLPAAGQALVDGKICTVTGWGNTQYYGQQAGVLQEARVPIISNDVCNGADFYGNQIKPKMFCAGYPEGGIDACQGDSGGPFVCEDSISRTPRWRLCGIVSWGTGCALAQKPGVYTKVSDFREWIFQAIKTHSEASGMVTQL
pIC50: −log10 of the molar value.
pIC50 by entry:

compound	pIC50
CC(=O)N[C@H](Cc1c[nH]c2ccccc12)C(=O)N[C@@H](Cc1ccccc1)C(=O)N[C@@H](CCCNC(=N)N)C(=O)c1nc2ccccc2s1 [Compound 13, Ac-dWFR-kbt]	8.96
CC(=O)N[C@@H](CO)C(=O)N[C@@H](CCCCN)C(=O)N[C@@H](Cc1ccccc1)C(=O)N[C@@H](CCCNC(=N)N)C(=O)c1nccs1 [Compound 9, Ac-SKFR-kt]	7.77
CC(=O)N[C@@H](Cc1c[nH]c2ccccc12)C(=O)N[C@@H](Cc1ccccc1)C(=O)N[C@@H](CCCNC(=N)N)C(=O)c1nc2ccccc2s1 [Compound 8, Ac-WFR-kbt]	8.12

----------
Biological target: UniProt P53634
Sequence (P53634 25-463, species assumed): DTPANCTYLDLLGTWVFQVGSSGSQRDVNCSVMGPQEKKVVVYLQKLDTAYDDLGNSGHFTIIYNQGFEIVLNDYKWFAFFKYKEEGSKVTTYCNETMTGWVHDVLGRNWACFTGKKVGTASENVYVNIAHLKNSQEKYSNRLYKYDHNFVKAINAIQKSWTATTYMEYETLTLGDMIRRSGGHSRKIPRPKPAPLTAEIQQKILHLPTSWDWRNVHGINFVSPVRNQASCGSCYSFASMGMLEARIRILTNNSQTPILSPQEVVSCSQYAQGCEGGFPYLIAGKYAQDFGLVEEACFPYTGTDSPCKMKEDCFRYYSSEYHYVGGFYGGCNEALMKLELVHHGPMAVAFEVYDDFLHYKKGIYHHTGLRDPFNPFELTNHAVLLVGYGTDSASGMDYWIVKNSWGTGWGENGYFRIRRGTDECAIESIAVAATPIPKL

smiles.input	measured.on	IC50, nM
CC(C)C[C@H](NC(=O)[C@H]1O[C@@H]1C(=O)O)C(=O)NCCCCN=C(N)N	UniProt P53634	1180

----------
Experiment: in vitro
Conditions: mouse, plasma

molecule	half-life
CC(=O)N[C@@H](CCC(N)=O)C(=O)N[C@@H](Cc1ccccc1)C(=O)N[C@@H](CCCNC(=N)N)C(=O)c1nc2ccccc2s1 [Compound 6, Ac-QFR-kbt]	> 4.82 h

----------
Target: Papain (Carica papaya)
Sequence (P00784 134-345): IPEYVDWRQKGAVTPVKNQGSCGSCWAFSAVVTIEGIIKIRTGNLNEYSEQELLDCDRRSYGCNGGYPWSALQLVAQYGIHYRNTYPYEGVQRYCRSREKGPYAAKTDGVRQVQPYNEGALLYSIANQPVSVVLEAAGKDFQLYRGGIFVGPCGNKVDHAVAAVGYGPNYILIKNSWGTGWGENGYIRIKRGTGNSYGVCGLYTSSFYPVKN
pIC50: −log10 of the molar value.

smiles.input	pIC50
CC(C)C[C@H](NC(=O)[C@H]1O[C@@H]1C(=O)O)C(=O)NCCCCN=C(N)N	9.62

----------
Target: Cathepsin S (Homo sapiens, UniProt P25774)
Sequence (P25774 115-331, species assumed): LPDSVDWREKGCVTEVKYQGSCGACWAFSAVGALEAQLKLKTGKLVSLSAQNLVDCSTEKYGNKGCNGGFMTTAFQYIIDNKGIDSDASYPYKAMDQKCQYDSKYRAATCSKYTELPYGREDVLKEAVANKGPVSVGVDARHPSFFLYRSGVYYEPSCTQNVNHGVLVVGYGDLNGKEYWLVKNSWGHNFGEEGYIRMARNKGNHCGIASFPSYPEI
pIC50: −log10 of the molar value.
assay.endpoint: pIC50

smiles.input	assay.endpoint	readout.value
CC(C)C[C@H](NC(=O)[C@H]1O[C@@H]1C(=O)O)C(=O)NCCCCN=C(N)N	pIC50	8.76

----------
Molecular target: Cathepsin G (Homo sapiens)
Sequence (P08311 21-255, species assumed): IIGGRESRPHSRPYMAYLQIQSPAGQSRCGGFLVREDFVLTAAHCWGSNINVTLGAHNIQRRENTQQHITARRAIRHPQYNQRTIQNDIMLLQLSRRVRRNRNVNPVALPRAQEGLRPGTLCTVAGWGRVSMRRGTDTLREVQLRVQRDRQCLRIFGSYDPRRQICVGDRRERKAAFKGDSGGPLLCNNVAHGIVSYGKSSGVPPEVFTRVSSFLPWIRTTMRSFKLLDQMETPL

compound	result.units	IC50
CC(C)C[C@H](NC(=O)[C@@H](NC(=O)N[C@@H](Cc1ccccc1)C(=O)O)[C@@H]1CCN=C(N)N1)C(=O)N[C@H](C=O)Cc1ccccc1 [Chymostatin]	µM	4.04

----------
List of pEC50 values.
Tested on: VSV-SARS-CoV-2-Spike protein Pseudotype virus
Test: microbe, parasite or virus in culture
Format: cell-based
Conditions: read-out: VSV-SARS-CoV-2 Calu-3 EC50
pEC50: −log10 of the molar value.

smiles.input	pEC50
CC(=O)N[C@@H](CC(C)C)C(=O)N[C@@H](CC(C)C)C(=O)N[C@@H](CCCNC(=N)N)C(=O)c1nccs1	6.46
CC(=O)N[C@H](Cc1c[nH]c2ccccc12)C(=O)N[C@@H](Cc1ccccc1)C(=O)N[C@@H](CCCNC(=N)N)C(=O)c1nc2ccccc2s1	7.49

----------
Target: UniProtKB Q9NRR2
Sequence (Q9NRR2 20-321): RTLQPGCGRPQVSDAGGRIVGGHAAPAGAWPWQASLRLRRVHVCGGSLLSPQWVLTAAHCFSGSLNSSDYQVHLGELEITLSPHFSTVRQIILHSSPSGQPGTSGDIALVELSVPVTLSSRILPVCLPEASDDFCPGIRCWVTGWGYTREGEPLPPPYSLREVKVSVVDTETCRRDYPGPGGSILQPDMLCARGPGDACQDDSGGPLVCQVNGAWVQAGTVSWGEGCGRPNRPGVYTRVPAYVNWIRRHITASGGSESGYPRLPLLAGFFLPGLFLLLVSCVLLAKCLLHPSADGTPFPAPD
pIC50: −log10 of the molar value. Counter-ions that a name gives are not always drawn.
assay.endpoint: pIC50

molecule	readout.value
CCOC(=O)c1ccc(OC(=O)CCCCCN=C(N)N)cc1 [Gabexate mesylate]	7.88

----------
Molecular target: Caspase 1 (Homo sapiens, UniProt P29466)
Sequence (P29466 120-404): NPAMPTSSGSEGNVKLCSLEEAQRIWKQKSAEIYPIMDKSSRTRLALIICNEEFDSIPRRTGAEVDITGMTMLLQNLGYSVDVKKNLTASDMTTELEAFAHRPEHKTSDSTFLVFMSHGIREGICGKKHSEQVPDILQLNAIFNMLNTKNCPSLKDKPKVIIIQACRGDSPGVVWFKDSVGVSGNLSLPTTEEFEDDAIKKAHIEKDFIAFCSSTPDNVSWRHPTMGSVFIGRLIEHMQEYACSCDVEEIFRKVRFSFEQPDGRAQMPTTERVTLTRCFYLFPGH
Residues, ends and D or L forms follow the SMILES beside them.
assay.endpoint: IC50

molecule	readout.value
CC[C@H](C)[C@H](NC(C)=O)C(=O)N[C@@H](CCC(=O)O)C(=O)N[C@H](C(=O)N[C@H](C=O)CC(=O)O)[C@@H](C)O [IETD-CHO] (Ac-IETD-aldehyde)	29.2 nM
